These data points were gathered from PubChem BioAssay (EPA / NIEHS).

assay: ATG_AP_1_CIS: Attagene CIS-FACTORIAL HepG2 Assay for human Activator Protein 1 (AP-1) (AID 2282931); details: HepG2 Attagene cis-factorial AP-1 reporter mRNA; actives raise or lower the signal
The source made the active and inactive calls. Rule for the calls: active = hit-call score of the fitted dose curve at least 0.9, where 1 is the maximum; inactive = score below 0.9.
API: response.call in Yes for active, No for inactive

Known results for molecules:
Ask: Identify the outcome logged in this assay for the molecule shown: COc1cc(C)cc(O)c1
Reply: No

Ask: Hi, sorry to bother you, what did the test record for CCCCNC(=O)NS(=O)(=O)c1ccc(N)cc1 ?
Reply: No

Ask: # lookup: test call for c1ccc2sc(SN(C3CCCCC3)C3CCCCC3)nc2c1
Reply: Yes

Ask: Write down the call the test reported for this molecule. Item: Cc1cccc(Nc2ccccc2C(=O)O)c1C
Reply: No

Others:
Ask: Assay result, entry Cc1c(Cl)c(=O)oc2cc(O)ccc12 — outcome?
Reply: No

###

assay: ATG_DR4_LXR_CIS: Attagene CIS-FACTORIAL HepG2 Assay for human Liver X Receptor (LXR), DR4 submotif (AID 2282929); conditions: HepG2 Attagene DR4 cis-reporter, mRNA transcription; actives raise or lower the signal
Calls of active or inactive are those of the source. The calls were made as follows: active = hit-call score of the fitted dose curve at least 0.9, where 1 is the maximum; inactive = score below 0.9.
Please state which outcome applies, choosing from label 1 = active, label 0 = inactive

For orientation, consider the following solved cases.
Ask: Name the outcome recorded for O=c1[nH]nnc2ccccc12 in the assay.
Reply: label 0

Ask: Please share the test call associated with Cc1ccc(S)cc1 .
Reply: label 1

Ask: So what was the verdict on CCCCCCCCCCCCCC(=O)O in this test?
Reply: label 0

Ask: Would you mind telling me which call this test gave CC(C)[C@H]1CC[C@@H](C)CC1=O ?
Reply: label 0

Ask: What is the recorded call for this molecule in the test? C=CC(C)(O)CCC=C(C)CCC=C(C)C (stereo not drawn)
Reply: label 0

Ask: Can you look up the reported call for Cc1ccc(C(=O)c2cc(O)c(O)c([N+](=O)[O-])c2)cc1 for me?
Reply: label 0

New cases:
Ask: What is the recorded call for this molecule in the test? CC(C#N)(CCC(=O)O)N=NC(C)(C#N)CCC(=O)O (stereo not drawn)
Reply: label 0

Ask: So what was the verdict on Cc1ccc2n[nH]nc2c1 in this test?
Reply: label 0

Ask: Any idea what this test logged for CCCCCCCCCCCCOCCO ?
Reply: label 1

Ask: Entry CCCCCC=CCC(=O)OC : call = ?
Reply: label 0

Ask: Outcome? O=C(O)c1cccc(C(F)(F)F)c1
Reply: label 0

Ask: Recorded test call requested for CCCCC(CC)COC(=O)/C=C\C(=O)OCC(CC)CCCC (stereo not drawn)
Reply: label 1

Ask: Just curious, what result did CC(C)C[C@H]1C(=O)N2CCC[C@H]2[C@]2(O)O[C@](NC(=O)[C@@H]3C=C4c5cccc6[nH]c(Br)c(c56)C[C@H]4N(C)C3)(C(C)C)C(=O)N12 get here?
Reply: label 1

###

test: ACEA_ER_AUC_viability: ACEA Biosciences xCELLigence Real-Time Cell Analysis on Estrogen Receptor Agonism for Viability (AID 2283782);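 note: continuous compound exposure with impedance area under curve over 80 h; hit means loss of impedance signal meaning reduced cell growth or viability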
Records with an inconclusive call do not appear. Active and inactive are the calls of the source. Rule for the calls: active = hit-call score of the fitted dose curve at least 0.9, where 1 is the maximum; inconclusive = response in the unintended direction; inactive = score below 0.9.
Pick from YES (active), NO (inactive) when you respond.

Example cases with answers are listed next.
Ask: Hey, what did the test say about CC1COc2ccccc2N1C(=O)C(Cl)Cl (stereo not drawn) ?
Reply: YES

Ask: Recorded test call requested for O=C1CCc2ccccc2O1
Reply: YES

Ask: State the result this test recorded for CC(=O)OCC=Cc1ccccc1 .
Reply: NO

Ask: Outcome logged for OCC(CO)(CO)COCC(CO)(CO)CO in this assay:
Reply: NO

Ask: How did this test come out for CCCCOCCOCCOCCOCCO ?
Reply: NO

Ask: Name the outcome recorded for CCCCCC=CCC(=O)OC in the assay.
Reply: NO

More entries:
Ask: Short answer needed: outcome of this test for O=[N+]([O-])c1cc(C(F)(F)F)ccc1Cl ?
Reply: YES

Ask: Given O=C(O)CCSCCC(=O)O , state the outcome it received in this test.
Reply: NO

Ask: Recorded test outcome, item CCC(C)(O)CCC=C(C)C (stereo not drawn)
Reply: YES

Ask: Test call, this compound: C=C[Si](OCC)(OCC)OCC
Reply: NO

Ask: Outcome? CC(C)=CCC[C@](C)(O)[C@@H]1CC=C(C)CC1
Reply: YES

Ask: Recorded call for OCCN1CCNCC1 ?
Reply: NO

Ask: // return assay outcome for Cc1cccc(C)c1C
Reply: YES

###

target: human Beta-secretase (BACE), BACE1 (gene 23621) (UniProt P56817); experiment: NVS_ENZ_hBACE: NovaScreen (NVS) Enzymatic Assay for human Beta-secretase (BACE) (AID 2283140);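 note: hits are inhibitors that reduce fluorescent substrate signal versus DMSO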
Sequence (P56817 whole entry, looked up): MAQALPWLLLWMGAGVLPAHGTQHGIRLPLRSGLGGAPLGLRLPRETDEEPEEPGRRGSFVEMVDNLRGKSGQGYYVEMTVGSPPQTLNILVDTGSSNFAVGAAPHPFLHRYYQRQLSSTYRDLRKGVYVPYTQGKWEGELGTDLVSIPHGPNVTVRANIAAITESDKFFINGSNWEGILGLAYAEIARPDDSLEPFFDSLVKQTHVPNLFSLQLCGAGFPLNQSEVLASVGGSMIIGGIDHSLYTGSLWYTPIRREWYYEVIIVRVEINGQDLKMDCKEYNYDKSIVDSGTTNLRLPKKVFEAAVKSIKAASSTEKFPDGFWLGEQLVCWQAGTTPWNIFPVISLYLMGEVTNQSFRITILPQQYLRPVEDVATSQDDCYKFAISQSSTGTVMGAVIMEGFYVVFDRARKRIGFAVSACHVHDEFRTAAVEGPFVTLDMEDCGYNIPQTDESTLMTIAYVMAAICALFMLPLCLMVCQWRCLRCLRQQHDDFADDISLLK
Inconclusive results are not listed. Calls of active or inactive are those of the source. How the source made its calls: active means hit-call score of the fitted dose curve at least 0.9, where 1 is the maximum; inconclusive means response in the unintended direction; inactive means score below 0.9.
Write down the outcome that applies. Available outcomes: active, inactive

Here's what some known entries look like.
Ask: Field: outcome | Entry: N#Cc1ccccc1
Reply: inactive

Ask: Kindly provide the recorded test outcome for the following compound: CCCCC/C=C/C=C/C=O
Reply: active

Ask: Hello, I am checking results. What call was entered for COC(=O)c1ccc(C)cc1 ?
Reply: inactive

API: the following record is the query input.
Ask: Answer briefly: the call reported for Cc1ccc(Nc2ccc(O)c3c2C(=O)c2ccccc2C3=O)cc1 in this assay.
Reply: active

###

assay: ATG_CMV_CIS: Attagene CIS-FACTORIAL HepG2 Assay for human CMV (Internal Marker) (AID 2282928); conditions: HepG2 CMV promoter reporter, transcription factor profiling; actives raise or lower the signal;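 note: endpoint acts as a background internal control marker rather than a target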
Calls of active or inactive are those of the source. The calls were made as follows: active = hit-call score of the fitted dose curve at least 0.9, where 1 is the maximum; inactive = score below 0.9.
Outcome (select one): 1.0 = active, 0.0 = inactive

Solved cases (5 shown):
Ask: Given CCc1ccc(C=O)cc1 , state the outcome it received in this test.
Reply: 0.0

Ask: Look up the recorded call for Nc1ccc(S(=O)(=O)O)c(N)c1 in this test.
Reply: 0.0

Ask: Name the outcome recorded for Nc1cccc(S(=O)(=O)c2cccc(N)c2)c1 in the assay.
Reply: 0.0

Ask: What did the test return for N#Cc1ccc(CC(=NNC(=O)Nc2ccc(OC(F)(F)F)cc2)c2cccc(C(F)(F)F)c2)cc1 ?
Reply: 0.0

Ask: Which outcome did this test record for the compound S=C(S)NCCNC(=S)S ?
Reply: 0.0

Attention now shifts to the item below.
Ask: Short answer needed: outcome of this test for CNC(=O)Oc1ccc2c(c1)[C@]1(C)CCN(C)[C@@H]1N2C ?
Reply: 0.0

###

Biological target: Hepatocyte nuclear factor 6 (Homo sapiens) (UniProt Q9UBC0)
Sequence (Q9UBC0 whole entry, looked up): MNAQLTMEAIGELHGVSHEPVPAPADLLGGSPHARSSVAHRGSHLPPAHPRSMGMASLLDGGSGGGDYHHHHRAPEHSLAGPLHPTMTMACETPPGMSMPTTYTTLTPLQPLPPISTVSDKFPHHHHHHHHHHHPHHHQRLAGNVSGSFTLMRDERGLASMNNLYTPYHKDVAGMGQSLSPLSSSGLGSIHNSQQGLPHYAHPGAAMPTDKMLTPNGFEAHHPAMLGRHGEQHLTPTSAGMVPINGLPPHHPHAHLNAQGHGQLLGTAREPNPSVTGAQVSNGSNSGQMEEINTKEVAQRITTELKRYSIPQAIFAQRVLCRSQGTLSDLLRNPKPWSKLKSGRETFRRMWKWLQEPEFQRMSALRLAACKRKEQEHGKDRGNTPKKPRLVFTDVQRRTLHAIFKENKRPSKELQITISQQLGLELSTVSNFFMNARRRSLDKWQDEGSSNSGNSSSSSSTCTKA
Test: ATG_HNF6_CIS: Attagene CIS-FACTORIAL HepG2 Assay for human Hepatocyte Nuclear Factor 6 (HNF6) (AID 2282952)
Settings: HepG2 Attagene cis-factorial HNF6 reporter transcription; actives raise or lower the signal
Method: ATG_CIS is a cell-based, multiplexed-readout assay that uses HepG2, a human liver cell line, with measurements taken at 24 hours after chemical dosing in a 24-well plate.ATG_HNF6_CIS is one of 52 assay component(s) measured or calculated from the ATG_CIS assay. […] This assay endpoint, ATG_HNF6_CIS, was analyzed with bidirectional fitting relative to DMSO as the negative control and baseline of activity. […]
The source made the active and inactive calls. The calls were made as follows: active = hit-call score of the fitted dose curve at least 0.9, where 1 is the maximum; inactive = score below 0.9.
Could you please pick one outcome from this set? active, inactive

Ask: Dear colleague, could you share the recorded outcome for O=C1OC2(c3cc(Br)c(O)c(Br)c3Oc3c2cc(Br)c(O)c3Br)c2c(Cl)c(Cl)c(Cl)c(Cl)c21 when you have a moment?
Reply: inactive

Ask: Test call, this molecule: OCCOCCOCCOCCO
Reply: inactive

Ask: How was CC1CCC(C(C)(C)O)CC1 (centres undefined) classified in this test?
Reply: inactive

Ask: I'd appreciate the recorded outcome for CC[C@]12CCCN3CCc4c(n(c5ccccc45)[C@@](O)(C(=O)OC)C1)[C@@H]32 from this test.
Reply: inactive

Ask: In this assay, the call recorded for CCC(C(=O)NC(N)=O)c1ccccc1 (centres undefined) was what?
Reply: inactive

Ask: Look up the recorded call for O=C(O)c1ccc(C(=O)O)cc1 in this test.
Reply: inactive

Ask: How was CCCCNC(=O)NS(=O)(=O)c1ccc(N)cc1 classified in this test?
Reply: inactive

Ask: GET /call?item= CN(C)c1ccc(O)c2c1C[C@H]1C[C@H]3[C@H](N(C)C)C(=O)C(C(N)=O)=C(O)[C@@]3(O)C(=O)C1=C2O returns the recorded outcome of this test.
Reply: inactive

Ask: Returns: the outcome recorded for C=C(C)C(=O)Nc1ccc(Cl)c(Cl)c1 in this assay.
Reply: inactive

Ask: Please share the test call associated with CC(=O)OCCOC(C)=O .
Reply: inactive

Ask: Check the results log: what was the call for C=C(C)C(=O)O[C@H]1C[C@@H]2CC[C@@]1(C)C2(C)C ?
Reply: inactive

###

read-out: Urokinase-type plasminogen activator receptor (uPAR), PLAUR (gene 5329); experiment: BSK_CASM3C_uPAR: BioMAP Diversity Plus: CASM3C Assay for Urokinase-type plasminogen activator receptor (uPAR) Biomarker Activity (AID 2283054); settings: primary human coronary artery smooth muscle cells; actives raise or lower the signal;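 note: cell-surface uPAR protein level quantified by ELISA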
The source made the active and inactive calls. How the source made its calls: active means hit-call score of the fitted dose curve at least 0.9, where 1 is the maximum; inactive means score below 0.9.
Hi there, use one of these labels in your reply, thanks! true (1) (active), false (0) (inactive)

Ask: Query: recorded result category for O=C(O)C[C@H](O)C[C@H](O)/C=C/c1c(C2CC2)nc2ccccc2c1-c1ccc(F)cc1 in this test
Reply: false (0)

Ask: Would you mind telling me which call this test gave O=[N+]([O-])c1cc(C(F)(F)F)ccc1Cl ?
Reply: false (0)

Ask: For CCn1c2ccccc2c2cc(N)ccc21 , which call appears in the assay record?
Reply: false (0)

Ask: Tell me the assay call for O=C=NC1CCC(CC2CCC(N=C=O)CC2)CC1 (stereo not drawn) please.
Reply: false (0)

Ask: Could you check what this test reported for Nc1cc([N+](=O)[O-])ccc1Cl ?
Reply: false (0)

Further cases:
Ask: Tell me the assay call for CN(CCOc1ccc(CC2SC(=O)NC2=O)cc1)c1ccccn1 (stereo not drawn) please.
Reply: false (0)

Ask: Dear colleague, could you share the recorded outcome for CC(=O)Nc1ccccc1O when you have a moment?
Reply: true (1)

Ask: Which result was noted for this molecule in the test: O=C(O)c1cn(C2CC2)c2cc(N3CCNCC3)c(F)cc2c1=O
Reply: false (0)

Ask: How was c1ccc2c(c1)c1cccc3ccc4cccc2c4c31 classified in this test?
Reply: false (0)

Ask: GET /call?item= O=P(c1ccccc1)(c1ccccc1)c1ccccc1 returns the recorded outcome of this test.
Reply: false (0)

Ask: // param item: C=CCOC(=O)CCC1CCCCC1 ; yields the recorded call
Reply: false (0)

Ask: # outcome recorded in this test, key = CCCCC(CC)COCCC#N (stereo not drawn)
Reply: false (0)

Ask: Can you look up the reported call for CCc1c(C)cc(N)c(CC)c1N for me?
Reply: false (0)
